Documented LC50 (50% lethal concentration) across a set of compounds
system: MDA-MB-231; assay: Antiproliferative activity against human MDA-MB-231 cells after 48 hrs; assay type: functional; settings: MDA-MB-231, 48 h

{"CPD_SMILES": "CCCCCCCCCCCCCCN[C@H](CO)[C@H](O)c1ccc([N+](=O)[O-])cc1.Cl", "SYSTEM_NAME": "MDA-MB-231", "LC50 (50% lethal concentration) / µM": 7.76}
{"CPD_SMILES": "CCCCCCCCCCCCCCN[C@H](C)[C@@H](O)c1ccccc1.Cl", "SYSTEM_NAME": "MDA-MB-231", "LC50 (50% lethal concentration) / µM": 6.46}
{"CPD_SMILES": "CCCCCCCCCCCCCCN[C@H](CO)[C@H](O)c1ccccc1", "SYSTEM_NAME": "MDA-MB-231", "LC50 (50% lethal concentration) / µM": 6.61}
{"CPD_SMILES": "CCCCCCCCCCCCCCN[C@@H](CO)Cc1ccccc1", "SYSTEM_NAME": "MDA-MB-231", "LC50 (50% lethal concentration) / µM": 6.61}
{"CPD_SMILES": "CCCCCCCCCCCCCCN[C@@H](C)[C@H](O)c1ccccc1", "SYSTEM_NAME": "MDA-MB-231", "LC50 (50% lethal concentration) / µM": 6.46}
{"CPD_SMILES": "C[C@@H](NC(=O)CCCCCCCCCCCCCCC[n+]1ccccc1)[C@@H](O)c1ccccc1.[Br-]", "SYSTEM_NAME": "MDA-MB-231", "LC50 (50% lethal concentration) / µM": 7.59}
{"CPD_SMILES": "C[C@H](NC(=O)CCCCCCCCCCCCCCC[n+]1ccccc1)[C@H](O)c1ccccc1.[Br-]", "SYSTEM_NAME": "MDA-MB-231", "LC50 (50% lethal concentration) / µM": 42.7}

====

test system: SK-MEL-28; test: Antiproliferative activity against human SKMEL28 cells after 48 hrs; assay type: functional; conditions: SK-MEL-28, 48 h

{"CPD_SMILES": "CCCCCCCCCCCCCCN[C@H](CO)[C@H](O)c1ccccc1", "VALUE_UNIT": "µM", "LC50": 5.62}
{"CPD_SMILES": "CCCCCCCCCCCCCCN[C@H](CO)[C@H](O)c1ccc([N+](=O)[O-])cc1.Cl", "VALUE_UNIT": "µM", "LC50": 6.03}
{"CPD_SMILES": "CCCCCCCCCCCCCCN[C@H](C)[C@@H](O)c1ccccc1.Cl", "VALUE_UNIT": "µM", "LC50": 5.75}
{"CPD_SMILES": "CCCCCCCCCCCCCCN[C@@H](C)[C@H](O)c1ccccc1", "VALUE_UNIT": "µM", "LC50": 6.31}
{"CPD_SMILES": "C[C@@H](NC(=O)CCCCCCCCCCCCCCC[n+]1ccccc1)[C@@H](O)c1ccccc1.[Br-]", "VALUE_UNIT": "µM", "LC50": 5.75}
{"CPD_SMILES": "CCCCCCCCCCCCCCN[C@@H](CO)Cc1ccccc1", "VALUE_UNIT": "µM", "LC50": 6.31}
{"CPD_SMILES": "C[C@H](NC(=O)CCCCCCCCCCCCCCC[n+]1ccccc1)[C@H](O)c1ccccc1.[Br-]", "VALUE_UNIT": "µM", "LC50": 20.4}

====

test system: SK-MEL-28; assay: Antiproliferative activity against human SKMEL28 cells after 48 hrs; assay type: functional; settings: SK-MEL-28, 48 h
Documented GI50 across a set of molecules
MEASURED_PROPERTY: GI50 (µM)

{"CPD_SMILES": "C[C@@H](NC(=O)CCCCCCCCCCCCCCC[n+]1ccccc1)[C@@H](O)c1ccccc1.[Br-]", "SYSTEM_NAME": "SK-MEL-28", "MEASURED_PROPERTY": "GI50", "VALUE_UNIT": "µM", "RESULT_NUMBER": 1.7}
{"CPD_SMILES": "CCCCCCCCCCCCCCN[C@@H](C)[C@H](O)c1ccccc1", "SYSTEM_NAME": "SK-MEL-28", "MEASURED_PROPERTY": "GI50", "VALUE_UNIT": "µM", "RESULT_NUMBER": 1.91}
{"CPD_SMILES": "CCCCCCCCCCCCCCN[C@H](CO)[C@H](O)c1ccc([N+](=O)[O-])cc1.Cl", "SYSTEM_NAME": "SK-MEL-28", "MEASURED_PROPERTY": "GI50", "VALUE_UNIT": "µM", "RESULT_NUMBER": 1.91}
{"CPD_SMILES": "CCCCCCCCCCCCCCN[C@@H](CO)Cc1ccccc1", "SYSTEM_NAME": "SK-MEL-28", "MEASURED_PROPERTY": "GI50", "VALUE_UNIT": "µM", "RESULT_NUMBER": 1.91}
{"CPD_SMILES": "CCCCCCCCCCCCCCN[C@H](CO)[C@H](O)c1ccccc1", "SYSTEM_NAME": "SK-MEL-28", "MEASURED_PROPERTY": "GI50", "VALUE_UNIT": "µM", "RESULT_NUMBER": 1.82}
{"CPD_SMILES": "C[C@H](NC(=O)CCCCCCCCCCCCCCC[n+]1ccccc1)[C@H](O)c1ccccc1.[Br-]", "SYSTEM_NAME": "SK-MEL-28", "MEASURED_PROPERTY": "GI50", "VALUE_UNIT": "µM", "RESULT_NUMBER": 2.34}
{"CPD_SMILES": "CCCCCCCCCCCCCCN[C@H](C)[C@@H](O)c1ccccc1.Cl", "SYSTEM_NAME": "SK-MEL-28", "MEASURED_PROPERTY": "GI50", "VALUE_UNIT": "µM", "RESULT_NUMBER": 1.86}

====

system: A549; test: Antiproliferative activity against human A549 cells after 48 hrs; type: functional; settings: A549, 48 h
MEASURED_PROPERTY: GI50 (nM)

{"CPD_SMILES": "C[C@H](NC(=O)CCCCCCCCCCCCCCC[n+]1ccccc1)[C@H](O)c1ccccc1.[Br-]", "MEASURED_PROPERTY": "GI50", "RESULT_NUMBER": 5130}
{"CPD_SMILES": "CCCCCCCCCCCCCCN[C@H](CO)[C@H](O)c1ccc([N+](=O)[O-])cc1.Cl", "MEASURED_PROPERTY": "GI50", "RESULT_NUMBER": 3550}
{"CPD_SMILES": "CCCCCCCCCCCCCCN[C@H](CO)[C@H](O)c1ccccc1", "MEASURED_PROPERTY": "GI50", "RESULT_NUMBER": 1700}
{"CPD_SMILES": "CCCCCCCCCCCCCCN[C@H](C)[C@@H](O)c1ccccc1.Cl", "MEASURED_PROPERTY": "GI50", "RESULT_NUMBER": 1740}
{"CPD_SMILES": "C[C@@H](NC(=O)CCCCCCCCCCCCCCC[n+]1ccccc1)[C@@H](O)c1ccccc1.[Br-]", "MEASURED_PROPERTY": "GI50", "RESULT_NUMBER": 4370}
{"CPD_SMILES": "CCCCCCCCCCCCCCN[C@@H](CO)Cc1ccccc1", "MEASURED_PROPERTY": "GI50", "RESULT_NUMBER": 2040}
{"CPD_SMILES": "CCCCCCCCCCCCCCN[C@@H](C)[C@H](O)c1ccccc1", "MEASURED_PROPERTY": "GI50", "RESULT_NUMBER": 1910}

====

tested on: SK-MEL-2; assay: Antiproliferative activity against human SKMEL2 cells after 48 hrs; assay type: functional; conditions: SK-MEL-2, 48 h
MEASURED_PROPERTY: LC50

{"CPD_SMILES": "CCCCCCCCCCCCCCN[C@@H](CO)Cc1ccccc1", "RESULT": "> 100 µM"}
{"CPD_SMILES": "CCCCCCCCCCCCCCN[C@H](CO)[C@H](O)c1ccccc1", "RESULT": "> 100 µM"}
{"CPD_SMILES": "CCCCCCCCCCCCCCN[C@H](CO)[C@H](O)c1ccc([N+](=O)[O-])cc1.Cl", "RESULT": "> 100 µM"}
